src = patent US10183943B2

measured_on: AmpC P. aeruginosa (Pseudomonas aeruginosa, UniProt P24735)
Sequence (P24735 27-397): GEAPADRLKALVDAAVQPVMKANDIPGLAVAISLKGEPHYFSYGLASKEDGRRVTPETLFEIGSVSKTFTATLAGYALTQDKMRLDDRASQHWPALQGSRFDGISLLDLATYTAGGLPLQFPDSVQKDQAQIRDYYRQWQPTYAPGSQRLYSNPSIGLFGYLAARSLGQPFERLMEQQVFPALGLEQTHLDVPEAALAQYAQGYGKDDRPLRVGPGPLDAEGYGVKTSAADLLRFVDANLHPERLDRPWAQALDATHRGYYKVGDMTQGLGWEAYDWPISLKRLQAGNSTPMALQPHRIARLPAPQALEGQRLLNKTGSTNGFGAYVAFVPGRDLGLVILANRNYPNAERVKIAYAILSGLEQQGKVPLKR
assay_method_text: β-lactamase inhibitory activity, determination of IC50 (nitrocefin hydrolysis)
condition_parameters: read-out: IC50 β-lactamase AmpC (PAE); class (C); nitrocefin 200 μM, 30 min pre-incubation
quantity_measured: IC50
Output should be the measured figure followed by the unit it is expressed in.

*Q* # lookup: IC50 of COC(=O)c1ncsc1C1=CCN2CC1N(OS(=O)(=O)[O-])C2=O.[Na+] (stereo not shown)
*A* 5.5 µM

###

measured_on: AmpC (P99) (Enterobacter cloacae, UniProt P05364)
Sequence (P05364 21-381): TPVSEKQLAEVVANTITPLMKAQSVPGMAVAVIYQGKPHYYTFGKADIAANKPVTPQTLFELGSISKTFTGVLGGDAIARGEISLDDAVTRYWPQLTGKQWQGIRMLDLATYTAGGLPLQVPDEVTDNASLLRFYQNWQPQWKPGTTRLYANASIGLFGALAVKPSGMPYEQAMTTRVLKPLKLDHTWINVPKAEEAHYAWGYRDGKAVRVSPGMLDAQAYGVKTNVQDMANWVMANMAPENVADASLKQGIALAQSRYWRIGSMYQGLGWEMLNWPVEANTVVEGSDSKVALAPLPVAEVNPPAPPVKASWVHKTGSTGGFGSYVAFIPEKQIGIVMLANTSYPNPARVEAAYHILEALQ
assay_method_text: β-lactamase inhibitory activity, determination of IC50 (nitrocefin hydrolysis)
condition_parameters: read-out: IC50 β-lactamase AmpC (P99); class (C); nitrocefin 200 μM, 30 min pre-incubation
quantity_measured: IC50 (nM)
Your answer is read as nM, so omit the unit and give the number.

*Q* # lookup: IC50 of COC(=O)c1ncsc1C1=CCN2CC1N(OS(=O)(=O)[O-])C2=O.[Na+] (stereo not shown)
*A* 160
